ASSAY EXPLANATION: S. cerevisiae RM11-1a growth modifiers, primary screen, strain RM11-1a, OD600, basal, 24 h (AID 1177);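 note: cultures grown under basal conditions with no added stressor; test concentration not given here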
STUDY CONDITIONS: OD600, 24 h, higher = more signal, called active from +8 up or from −8 down
Here the recorded z-score is given for each entry.
Give only the figure.

As a guide, the following entries are already answered.
COMPOUND	READOUT VALUE
CC(C)C(=O)N[C@@H]1CCCN1C(=O)C=Cc1ccccc1	-1.19
C#CCCCON=C1C[C@@H](O)[C@@H](O)[C@@H]2[C@@H]3C(=O)N(C4CCCCC4)C(=O)[C@@H]3CC[C@H]12	-0.126
CO[C@@H]1COC(=O)CC=C[C@H](C)COC(=O)[C@H](C)NC(=O)CC=C[C@H]1C	1.25
C[C@@H](c1ccccc1)N1C(=O)[C@H]2[C@H]3[C@H](O)[C@H](O)CC(=O)[C@@H]3CC[C@H]2C1=O	-2.9
CC(C)=NOCc1ccc(-c2cn([C@@H]3COC[C@H]3O)nn2)cc1	-0.0292

Quick check: z-score of CO[C@H]1COC(=O)[C@H](C)NC(=O)CC=C[C@@H](C)[C@H](OC)COC(=O)CC=C[C@@H]1C ?
1.18

Quick check: z-score of CCN1C(=O)[C@H]2[C@H]3[C@H](O)[C@H](O)CC(=NOC)[C@@H]3CC[C@H]2C1=O ?
-0.458

Quick check: z-score of COC(=O)[C@H](C)NC(=O)CCC1CC(OC(=O)NCCc2ccc(F)cc2)CC2(CCCC(COC(=O)NCCCN3CCCC3=O)O2)O1 (stereo partly specified) ?
0.492

Quick check: z-score of CCOC(=O)NN=C1C[C@@H](O)[C@@H](O)[C@@H]2[C@@H]3C(=O)N(Cc4ccccc4)C(=O)[C@@H]3CC[C@@H]12 ?
0.371

Quick check: z-score of CCOC(=O)[C@H](Cc1ccccc1)NC(=O)CCC1CC(OC(=O)NCc2cccc3ccccc23)CC2(CCCC(COC(=O)NCCCN3CCCC3=O)O2)O1 (stereo partly specified) ?
-0.697

Quick check: z-score of CCOC(=O)NN=C1C[C@@H](O)[C@@H](O)[C@@H]2[C@@H]3C(=O)N(Cc4ccc5c(c4)OCO5)C(=O)[C@@H]3CC[C@@H]12 ?
0.52

Quick check: z-score of CC(C)CCN1CCc2nc(-c3ccccc3)c3c(c2C1)CO[C@@H](C)C3 ?
0.396

Quick check: z-score of Cc1cc2c(nc1C)CCCN2CC(C)ON=C[C@@H](C)[C@H](OCc1ccccc1)C(C)C (stereo partly specified) ?
0.776

---

ASSAY EXPLANATION: PSAC antagonists in infected red cells, primary screen, cell-based, P. falciparum Indochina, OD700, 1 h (AID 1154)
STUDY CONDITIONS: P. falciparum Indochina infected RBC osmotic lysis, higher = more signal, called active from +8 up or from −8 down
Consider the following partition of reported z-score into named classes: range A (below -0.09), range B (-0.09 to below 2), range C (2 or more)

Classify this molecule: CCOC(=O)[C@H](Cc1ccccc1)NC(=O)CCC1CC(OC(=O)NCc2cccc3ccccc23)CC2(CCCC(COC(=O)NCCCN3CCCC3=O)O2)O1 (stereo not given in full)
range A

Classify this molecule: C=C(C)C(=O)OC[C@@H]1CN2[C@@H](CC[C@@H](C)[C@@H]2c2ccc(Br)cc2)C(=O)O1
range B

Classify this molecule: C=CCN1C(=O)[C@]2(O[C@H](CCn3cc(CCO)nn3)[C@@H]([Si](C)(C)c3ccc(OC)cc3)[C@@H]2C)c2cc(N3C(=O)c4cccc5cccc3c45)ccc21
range C

Classify this molecule: Cc1ccc(S(=O)(=O)N[C@H]2COC(=O)[C@@H](C)COC(=O)[C@H](C)NC(=O)CC=C[C@H]2C)cc1
range A
